Reported pest or weed control at 100 ppm values follow for various compounds
- Test system: Zymoseptoria tritici
- test_name: Fungicidal activity: leaf blotch of wheat (SEPTTR), percent disease control on wheat seedlings
- Assay type: in vivo
- condition_set: Zymoseptoria tritici, 24 h, HV (high volume) activity at 100 ppm, 1 Day Protectant, read-out: SEPTTR 1DP disease control rating

See these solved cases before continuing.
>  <compound>
COc1ccnc(C(=O)N[C@@H](C)C(=O)O[C@@H](C)[C@@H](c2ccccc2)S(=O)(=O)Cc2ccccc2)c1O [Compound 48]

>  <pest or weed control at 100 ppm>
≤ 80%

$$$$
>  <compound>
COc1ccnc(C(=O)N[C@@H](C)C(=O)O[C@@H](C)[C@H](Sc2ccc(F)cc2C)c2ccccc2)c1O [Compound 38]

>  <pest or weed control at 100 ppm>
> 80%

$$$$
>  <compound>
COc1ccnc(C(=O)N[C@@H](C)C(=O)O[C@@H](C)[C@H](Sc2ccccc2)c2ccccc2)c1O [Compound 54]

>  <pest or weed control at 100 ppm>
≤ 80%

$$$$

Then there is this compound:
Query: Recorded pest or weed control at 100 ppm of COc1ccnc(C(=O)N[C@@H](C)C(=O)O[C@@H](C)[C@H](SCc2ccccc2)c2ccccc2)c1O [Compound 45] , please.
Reply: ≤ 0%
